test system: ACHN; assay: NCI tumour cell line growth inhibition, 48 h
Active and inactive are the calls of the source. Rule as the data show it: active = GI50 up to about 1.1 µM and inactive = higher.
Please provide measured GI50 for the entries that follow.

Give the measured GI50 for CCOP(=O)(OCC)[C@H](O)c1ccsc1 > 100 µM (inactive)

Give the measured GI50 for COC(=O)N[C@@H]1C[C@H]2CC[C@]1(O[Si](C(C)C)(C(C)C)C(C)C)C(=O)C2 18.4 µM (inactive)

Give the measured GI50 for OC1(c2ccc(Cl)cc2)c2ccccc2-c2nc3ccccc3n21 (centres undefined) > 100 µM (inactive)

Give the measured GI50 for S=C=NCCc1ccccc1 [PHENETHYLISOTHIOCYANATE] 1.56 µM (inactive)

Give the measured GI50 for N#Cc1ccc(Oc2cccc(Oc3ccccc3)c2)cc1C#N 54.3 µM (inactive)

Give the measured GI50 for C=CC(=O)N1C/C(=C\c2ccc(OC)cc2)C(=O)/C(=C/c2ccc(OC)cc2)C1 1.78 µM (inactive)

Give the measured GI50 for CC(C)=NOC(=O)OC[C@H]1O[C@@H](n2cnc3c(N)ncnc32)C(O)C1O (some centres undefined) > 100 µM (inactive)

Give the measured GI50 for Cc1ccc2c(O)cc(-c3cc4ccccc4s3)nc2n1 47.6 µM (inactive)

Consider now this further molecule.
Give the measured GI50 for COc1cc([C@@H]2c3cc4c(cc3[C@@H](c3c(O)cc(O)c5c3O[C@H](c3ccc(O)c(O)c3)[C@@H](O)C5)[C@H]3COC(=O)[C@H]23)OCO4)cc(OC)c1OC 1.78 µM (inactive)

====

tested on: OVCAR-5; test: NCI tumour cell line growth inhibition, 48 h
Active and inactive are the calls of the source. Rule as the data show it: active = GI50 up to about 1.1 µM and inactive = higher.
measured quantity: GI50

Example results:
Give the measured GI50 for N#CC(C(=O)Nc1ccccc1)C1=C(Cl)C(=O)c2ccccc2C1=O (stereo not given) 17.6 µM (inactive)

Give the measured GI50 for CC(C)(C)OC(=O)N/C=C1\C(=O)Oc2ccccc2C1=O 46.8 µM (inactive)

Give the measured GI50 for Cc1nc(Nc2ccc([N+](=O)[O-])cc2)sc1C(/C=C/c1ccc(N(C)C)cc1)=N/NC(=O)c1ccccc1 > 100 µM (inactive)

# map each molecule to its GI50
1. COC(=O)CCn1cnc2c(SC)ncnc21
2. COC(OC)c1cccc2c1C(=O)CCC1(CC2)OCCCCO1

["> 100 µM (inactive)", "> 100 µM (inactive)"]

====

test system: SK-MEL-2; assay: NCI tumour cell line growth inhibition, 48 h
Calls of active or inactive are those of the source. No stated cut-off is given here; in the data, active = GI50 up to about 1.1 µM and inactive = higher.
measured quantity: GI50

Give the measured GI50 for CCOC(=O)N1CCN(c2nc(C)n(-c3ccccc3)c(=S)c2C#N)CC1 > 76.4 µM (inactive)

Give the measured GI50 for N#Cc1cc([N+](=O)[O-])ccc1NC(=O)/C(=N\NC(=O)c1ccncc1)C(c1cnc2ccc([N+](=O)[O-])cc2n1)[N+](=O)[O-] (stereo not drawn) 1.75 µM (inactive)

# map each compound to its GI50
1. CN(C)CC1CCCC/C1=N\OC(=O)c1ccccc1 (stereo not drawn)
2. CCOC(=O)Cn1nnc2ccc(Nc3nc4ccccc4nc3-c3ccccc3)cc21
3. O=C(OCc1ccccc1)c1ccc(NCc2cc(O)ccc2O)cc1
4. C=C[C@]1(O)CCC[C@]2(C)C(=O)CCC12C (stereo partly drawn)
5. O=C1/C(=C/c2ccccc2[N+](=O)[O-])N=C(c2ccccc2)N1C1Nc2cc3c(cc2S1)NC(N1C(=O)/C(=C/c2ccccc2[N+](=O)[O-])N=C1c1ccccc1)S3 (stereo not drawn)
6. O=C(/C(=C/c1ccc(Cl)cc1)c1ccccc1)c1ccccc1

> 100 µM (inactive)
> 100 µM (inactive)
2.05 µM (inactive)
> 100 µM (inactive)
36.8 µM (inactive)
20.4 µM (inactive)

# map each compound to its GI50
1. COc1cc(C)c(CC/C(C)=C/Cc2cc(O)ccc2O)c(C)c1C [PANICEIN A HYDROQUINONE]
2. CC(/C=N\NC(=S)N1CCCCC1)=N/NC(=S)N1CCCCC1
3. O=C1C2=Cc3ccccc3OC2(O)Oc2cc3ccccc3cc21 (stereo not drawn)
4. Nc1ccc(SC23CC4CC(CC(C4)C2)C3)cc1
5. O=C(SCc1cccc2ccccc12)c1ccc(Cl)cc1
6. Cc1c(Cl)cccc1N1C(=O)C(Cl)=C(Cl)C1=O
7. CCC(C#N)NCc1ccc(CNC(C#N)CC)cc1 (stereo not drawn)

["> 25 µM (inactive)", "1.28 µM (inactive)", "> 100 µM (inactive)", "> 100 µM (inactive)", "> 100 µM (inactive)", "> 100 µM (inactive)", "> 100 µM (inactive)"]

====

system: SF-539; experiment: NCI tumour cell line growth inhibition, 48 h
Activity calls are given as the source filed them. No stated cut-off is given here; in the data, active = GI50 up to about 1.1 µM and inactive = higher.
Reply using exactly one outcome from active, inactive

Hi team, can someone confirm the assay call for O=C(N/N=C/c1ccccc1)c1cccc2nc3ccccc3nc12 ? inactive

Hi team, can someone confirm the assay call for Cc1ccc(C(=O)N/N=C(\N=N\c2ccccc2Cl)c2ccc(N(C)C)cc2)cc1 ? inactive

Hi team, can someone confirm the assay call for O=C(O)c1c([N+](=O)[O-])cc(C(F)(F)F)cc1[N+](=O)[O-] ? inactive

====

system: SK-OV-3; assay: NCI tumour cell line growth inhibition, 48 h
The source made the active and inactive calls. No stated cut-off is given here; in the data, active = GI50 up to about 1.1 µM and inactive = higher.
Reply using exactly one outcome from y for active, n for inactive

Below are worked cases with known answers.
Hi team, can someone confirm the assay call for C=C1CC(CNc2cc(Cl)nc(N)n2)C1 ? n

Hi team, can someone confirm the assay call for NCC1Nc2ccccc2[C@@H](O)C1O (stereo partly drawn) ? n

Hi team, can someone confirm the assay call for Oc1cc(Br)cc2cccnc12 ? n

Hi team, can someone confirm the assay call for Nc1nc(O)c2[nH]cnc2[n+]1[O-] ? n

Hi team, can someone confirm the assay call for O=C(Nc1ccccc1)Oc1ccccc1C1CCCCC1 ? n

---
Hi team, can someone confirm the assay call for c1ccc2c(CNCCCCCCCCCCCCNCc3cccc4ccccc34)cccc2c1 ? n

Hi team, can someone confirm the assay call for CC1(c2cccc(N)c2)C2C(=O)NC(=O)C1C(=O)NC2=O (stereo not drawn) ? n

Hi team, can someone confirm the assay call for Cc1ccc(O)c(C2=CC3=NNC(=O)C3C(c3cccc(Cl)c3)C2)c1 (stereo not drawn) ? n

====

system: SF-268; experiment: NCI tumour cell line growth inhibition, 48 h
Activity calls are given as the source filed them. Cut-off read from the data, not from the text of the source: active = GI50 up to about 1.1 µM and inactive = higher.
measured quantity: GI50

Give the measured GI50 for O=c1oc2ccc(-n3c(=O)c4ccccc4c4ccccc4c3=O)cc2c2ccccc12 50 µM (inactive)

Give the measured GI50 for C[C@]12CCC(N3CCCC3)CC1=CC[C@@H]1[C@@H]2CC[C@]2(C)C(O)[C@H](n3ccnc3)C[C@@H]12 (stereo not given in full) > 10 µM (inactive)

Give the measured GI50 for O=C1CCCC/C1=C\c1ccc([N+](=O)[O-])cc1 34.6 µM (inactive)

Give the measured GI50 for NS(=O)(=O)c1ccc(NC2=CC(=O)C(=O)c3ccccc32)cc1 > 100 µM (inactive)

Give the measured GI50 for O=C1C(Cl)C2(CC(/C=C/c3cccs3)=NN2c2cccc(S(=O)(=O)O)c2)N1c1nc2ccccc2s1 (stereo not given) > 100 µM (inactive)

# map each compound to its GI50
1. O=C(Nc1ccc(Cl)c(Cl)c1)C(=O)C(C(=O)c1ccccc1F)C1OC(=O)c2ccccc21 (stereo not given)
2. CN(C)CC1CCCC/C1=N\OC(=O)c1ccccc1 (stereo not given)
3. C=CCNc1nc(C#N)c(N)s1
4. COc1ccc(/C=C/c2nnc(S)[nH]2)cc1OC
5. CC1OC(OC2C(Oc3cc(O)c4c(c3)O[C@H](c3ccc(O)cc3)CC4=O)OC(CO)C(O)C2O)C(O)C(O)C1O (stereo not given in full)

23.7 µM (inactive)
> 100 µM (inactive)
> 10 µM (inactive)
> 100 µM (inactive)
> 100 µM (inactive)

====

tested on: HOP-92; assay: NCI tumour cell line growth inhibition, 48 h
Active and inactive are the calls of the source. No stated cut-off is given here; in the data, active = GI50 up to about 1.1 µM and inactive = higher.
measured quantity: GI50

Give the measured GI50 for Cc1nn(-c2ccccc2)c2c1N=C(C(=O)O)CC(c1ccccc1)=N2 > 10 µM (inactive)

Give the measured GI50 for C[C@H](NS(=O)(=O)c1ccc(NC(=O)c2ccccc2)cc1)C(=O)O > 100 µM (inactive)

Give the measured GI50 for c1ccc2c(CNCCCCCCCCCCCCNCc3cccc4ccccc34)cccc2c1 1.88 µM (inactive)

Give the measured GI50 for COC(=O)[C@H](Cc1ccccc1)NP(=O)(O)OCC1OC(n2cc(C)c(=O)[nH]c2=O)CC1N=[N+]=[N-] (stereo not given in full) > 100 µM (inactive)

Give the measured GI50 for COc1cc(CC(C)=O)cc(OC)c1 29.9 µM (inactive)

# map each molecule to its GI50
1. OC1(c2ccc(Cl)cc2)c2ccc3ccccc3c2C2=N[C@H]3CCCC[C@@H]3N21 (stereo not given in full)
2. COc1ccc(-c2cs/c(=N\c3ccccc3)n2CCCN(C)C)cc1

["16.9 µM (inactive)", "26.3 µM (inactive)"]
